Target system: T1, zebrafish PTH1R receptor, clone zPTH1R#25 (longer 5' UT, 391 bp), transiently expressed in COS-7 cells (zebrafish (Danio rerio))
T1 construct: only the 5' UT differs; also called zPPR1#25
T1 chain: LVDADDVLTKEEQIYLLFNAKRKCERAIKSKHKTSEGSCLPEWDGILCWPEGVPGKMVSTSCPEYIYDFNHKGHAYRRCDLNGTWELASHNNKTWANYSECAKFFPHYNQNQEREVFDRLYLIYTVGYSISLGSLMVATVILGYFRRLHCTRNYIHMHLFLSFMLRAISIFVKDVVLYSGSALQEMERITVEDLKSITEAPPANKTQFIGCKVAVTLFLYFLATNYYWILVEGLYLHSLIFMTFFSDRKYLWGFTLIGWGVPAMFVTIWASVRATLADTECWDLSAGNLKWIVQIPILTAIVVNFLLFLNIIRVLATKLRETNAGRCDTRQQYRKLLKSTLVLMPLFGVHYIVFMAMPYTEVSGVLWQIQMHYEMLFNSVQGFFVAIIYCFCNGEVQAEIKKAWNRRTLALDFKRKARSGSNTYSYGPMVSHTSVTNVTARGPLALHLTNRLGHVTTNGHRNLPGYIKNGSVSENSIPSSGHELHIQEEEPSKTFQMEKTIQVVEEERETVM
Procedure text: competitive radioligand binding on intact COS-7 cells expressing the receptor, room temperature; unlabeled hPTH, radioligand not clearly stated (125I-rPTH or 125I-PTHrP)
No end group written: not given here.
Observed property: IC50

Lab book: IC50 of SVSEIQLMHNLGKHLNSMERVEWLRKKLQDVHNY-NH2 (Synthetic analog of human PTH(1-34) with Tyr at 34) [[Tyr34]hPTH(1-34)amide] noted as ~3 nM
